- system-name: Glycogen synthase kinase-3 beta (Homo sapiens) (UniProt P49841)
- Sequence (P49841 whole entry, looked up): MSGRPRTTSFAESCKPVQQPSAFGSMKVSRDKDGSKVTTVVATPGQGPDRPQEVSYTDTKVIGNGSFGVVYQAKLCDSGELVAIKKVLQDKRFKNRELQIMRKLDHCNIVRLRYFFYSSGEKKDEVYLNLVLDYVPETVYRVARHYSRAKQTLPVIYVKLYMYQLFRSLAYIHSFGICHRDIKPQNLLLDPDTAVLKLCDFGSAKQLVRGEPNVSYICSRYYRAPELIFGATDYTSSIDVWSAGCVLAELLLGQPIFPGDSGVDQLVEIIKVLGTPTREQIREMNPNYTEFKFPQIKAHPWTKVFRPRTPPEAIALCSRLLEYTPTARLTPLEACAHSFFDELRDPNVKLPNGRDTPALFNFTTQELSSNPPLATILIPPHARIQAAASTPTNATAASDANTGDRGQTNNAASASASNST
- assay-notes: Inhibition of human recombinant GSK-3 beta expressed in baculovirus-infected Sf9 cells assessed as enzyme residual activity using YRRAAVPPSPSLSRHSSPHQSpEDEEE as substrate at 10 uM incubated for 30 mins in presence of ATP by ADP-Glo kinase assay
Just a reminder that ties go to No: only Activity strictly below 70% counts as Yes.

See these solved cases before continuing.
// query Could you please tell me whether Activity recorded for `CN(C)Cc1c[nH]c2cc3cnccc3cc12` is less than 70%?
// result Yes

// query Could you please tell me whether Activity recorded for `c1cc2cc3c(-c4cncnc4)c[nH]c3cc2cn1` is less than 70%?
// result Yes

// query Could you please tell me whether Activity recorded for `Ic1c[nH]c2cc3cnccc3cc12` is less than 70%?
// result No

// query Could you please tell me whether Activity recorded for `N#Cc1c[nH]c2cc3cnccc3cc12` is less than 70%?
// result Yes

// query Could you please tell me whether Activity recorded for `c1ccc(-c2c[nH]c3cc4cnccc4cc23)cc1` is less than 70%?
// result No

Others:
// query Could you please tell me whether Activity recorded for `ON=Cc1c[nH]c2cc3cnccc3cc12` is less than 70%?
// result Yes

// query Could you please tell me whether Activity recorded for `Cn1cc(I)c2cc3ccncc3cc21` is less than 70%?
// result Yes

---

Each item that follows carries a reported Activity.
- system-name: Serine/threonine-protein kinase pim-1 (Homo sapiens)
- Sequence (P11309 whole entry, looked up): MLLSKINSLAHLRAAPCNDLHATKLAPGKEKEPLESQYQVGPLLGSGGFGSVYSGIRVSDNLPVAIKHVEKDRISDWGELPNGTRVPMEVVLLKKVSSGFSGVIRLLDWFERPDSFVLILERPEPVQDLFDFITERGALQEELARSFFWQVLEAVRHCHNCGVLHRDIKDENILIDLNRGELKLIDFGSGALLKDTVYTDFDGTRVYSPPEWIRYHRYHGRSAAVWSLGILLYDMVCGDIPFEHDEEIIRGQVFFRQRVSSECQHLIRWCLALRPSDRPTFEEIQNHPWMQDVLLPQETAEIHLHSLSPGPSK
- assay-notes: Inhibition of human recombinant PIM-1 expressed in bacteria assessed as enzyme residual activity using histone H1 as substrate at 10 uM incubated for 30 mins in presence of ATP by ADP-Glo kinase assay

Examples from the recorded data:
// query Identify measured Activity associated with `CCn1ncc2cc3cnccc3c(N)c21`
// result 60%

// query Identify measured Activity associated with `OCc1c[nH]c2cc3cnccc3cc12`
// result 100%

// query Identify measured Activity associated with `c1cc(-c2c[nH]c3cc4cnccc4cc23)ccn1`
// result 9%

// query Identify measured Activity associated with `Ic1c[nH]c2cc3cnccc3cc12`
// result 23%

// query Identify measured Activity associated with `O=Cc1c[nH]c2cc3cnccc3cc12`
// result 33%

Others:
// query Identify measured Activity associated with `Clc1c[nH]c2cc3cnccc3cc12`
// result 16%

// query Identify measured Activity associated with `CCNCc1c[nH]c2cc3cnccc3cc12`
// result 74%

// query Identify measured Activity associated with `c1cc2cc3c(-c4cncnc4)c[nH]c3cc2cn1`
// result 33%

// query Identify measured Activity associated with `N#Cc1c[nH]c2cc3cnccc3cc12`
// result 95%

// query Identify measured Activity associated with `NCc1c[nH]c2cc3cnccc3cc12`
// result 84%

---

- system-name: Serine/threonine-protein kinase pim-1 (Homo sapiens)
- assay-notes: Inhibition of human recombinant PIM-1 expressed in bacteria assessed as enzyme residual activity using histone H1 as substrate at 1 uM incubated for 30 mins in presence of ATP by ADP-Glo kinase assay
Each item that follows carries a reported Activity.
Just the number in %, nothing appended.

// query Identify measured Activity associated with `c1cc2cc3c(-c4cncnc4)c[nH]c3cc2cn1`
// result 63

// query Identify measured Activity associated with `CCn1ncc2cc3cnccc3c(N)c21`
// result 91

Others:
// query Identify measured Activity associated with `c1cc(-c2c[nH]c3cc4cnccc4cc23)ccn1`
// result 49

Origin of the recorded values: ChEMBL document CHEMBL5550090
